Listed below: BRD9 Deg Amax % values for each entry.
- Tested on: BRD9-GFP (Homo sapiens, UniProt Q9H8M2)
- Construct: CHYSEL (2A cis-acting hydrolase element) remnant after GFP; mCherry is split off as a separate protein (C); expressed in transfected cells; host or cells: HEK293A cells (Invitrogen R70507), lentiviral transduction with pLenti6-BRD9-GFP-CHYSEL-mCherry, blasticidin selection
- Sequence (Q9H8M2 1-597): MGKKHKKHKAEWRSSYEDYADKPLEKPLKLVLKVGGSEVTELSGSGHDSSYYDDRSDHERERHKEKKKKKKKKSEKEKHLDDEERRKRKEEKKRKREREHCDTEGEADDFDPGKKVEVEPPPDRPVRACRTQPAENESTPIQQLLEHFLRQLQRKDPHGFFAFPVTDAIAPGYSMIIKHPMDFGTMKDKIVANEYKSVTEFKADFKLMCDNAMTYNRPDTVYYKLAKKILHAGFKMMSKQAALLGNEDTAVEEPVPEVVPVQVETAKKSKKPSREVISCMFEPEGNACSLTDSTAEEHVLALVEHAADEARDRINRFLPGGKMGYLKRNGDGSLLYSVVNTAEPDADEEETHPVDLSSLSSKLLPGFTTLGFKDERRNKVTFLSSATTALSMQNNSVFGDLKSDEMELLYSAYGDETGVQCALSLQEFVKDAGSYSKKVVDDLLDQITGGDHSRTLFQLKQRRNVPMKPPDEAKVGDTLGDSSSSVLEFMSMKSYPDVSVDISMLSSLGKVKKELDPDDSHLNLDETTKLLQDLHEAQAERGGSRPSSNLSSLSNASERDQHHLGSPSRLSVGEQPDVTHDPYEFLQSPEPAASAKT
- Measurement description: BRD9-GFP protein abundance flow cytometry assay in HEK293A cells
- Format: cell-based
- Assay context: HEK293A-BRD9-GFP-CHYSEL-mCherry cells, 24 h; % protein remaining at the concentration at which maximum degradation is seen
The reply should be a number in %, with the unit left off.

Example results:
COc1cc(-c2cn(C)c(=O)c3cnccc23)c(OC)cc1CN1CCN(CC2CCN(C(=O)c3ccc(OC)c(N4CCC(=O)NC4=O)c3)CC2)CC1 [Compound A23]: 10.64
Cn1cc(-c2cc(F)c(CN3CCC(OC4CCN(CCn5cccc(CN6CCC(=O)NC6=O)c5=O)CC4)CC3)cc2F)c2ccncc2c1=O [Compound E1]: 19.40

Query :: Short answer please: BRD9 Deg Amax %, BRD9-GFP (Homo sapiens, UniProt Q9H8M2), entry COc1cc(-c2cn(C)c(=O)c3cnccc23)cc(F)c1CN1CCC(OC2CCN(CCn3cccc(CN4CCC(=O)NC4=O)c3=O)CC2)CC1 [Compound E24]
Result :: 17.08

Query :: Short answer please: BRD9 Deg Amax %, BRD9-GFP (Homo sapiens, UniProt Q9H8M2), entry COc1cc(-c2cn(C)c(=O)c3cnccc23)cc(OC)c1CCN1CCC(OC2CCN(CCn3cccc(CN4CCC(=O)NC4=O)c3=O)CC2)CC1 [Compound C4]
Result :: 19.82

Query :: Short answer please: BRD9 Deg Amax %, BRD9-GFP (Homo sapiens, UniProt Q9H8M2), entry COc1cc(-c2cn(C)c(=O)c(C)c2C)c(OC)cc1CN1CCC(OC2CCN(C(=O)c3ccc(Cl)c(N4CCC(=O)NC4=O)c3)CC2)CC1 [Compound A18]
Result :: 11.83

Query :: Short answer please: BRD9 Deg Amax %, BRD9-GFP (Homo sapiens, UniProt Q9H8M2), entry CCCCn1cc(-c2cc(F)c(OC3CCN(CC4CCN(C(=O)c5ccc(OC)c(N6CCC(=O)NC6=O)c5)CC4)CC3)c(F)c2)c2ccncc2c1=O [Compound E49]
Result :: 19.41

====

Listed below: BRD9 Deg Amax % values for each entry.
- Tested on: BRD9-GFP (Homo sapiens)
- Construct: CHYSEL (2A cis-acting hydrolase element) remnant after GFP; mCherry is split off as a separate protein (C); expressed in transfected cells; host or cells: HEK293A cells (Invitrogen R70507), lentiviral transduction with pLenti6-BRD9-GFP-CHYSEL-mCherry, blasticidin selection
- Sequence (Q9H8M2 1-597): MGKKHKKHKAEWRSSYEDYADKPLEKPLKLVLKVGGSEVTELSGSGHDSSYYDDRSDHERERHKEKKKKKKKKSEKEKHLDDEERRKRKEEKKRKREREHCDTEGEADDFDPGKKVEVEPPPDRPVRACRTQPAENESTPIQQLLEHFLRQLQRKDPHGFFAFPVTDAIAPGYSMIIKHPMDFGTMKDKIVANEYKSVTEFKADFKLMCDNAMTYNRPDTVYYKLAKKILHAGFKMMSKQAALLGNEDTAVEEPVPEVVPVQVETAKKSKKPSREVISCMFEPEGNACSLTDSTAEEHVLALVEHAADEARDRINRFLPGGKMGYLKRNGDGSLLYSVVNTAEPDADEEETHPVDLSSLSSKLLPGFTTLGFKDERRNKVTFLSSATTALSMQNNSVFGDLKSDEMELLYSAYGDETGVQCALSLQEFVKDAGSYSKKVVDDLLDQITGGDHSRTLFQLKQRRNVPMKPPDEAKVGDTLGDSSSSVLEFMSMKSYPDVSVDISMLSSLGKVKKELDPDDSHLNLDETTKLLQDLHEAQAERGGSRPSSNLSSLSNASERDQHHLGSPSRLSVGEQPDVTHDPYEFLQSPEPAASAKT
- Measurement description: BRD9-GFP protein abundance flow cytometry assay in HEK293A cells
- Format: cell-based
- Assay context: HEK293A-BRD9-GFP-CHYSEL-mCherry cells, 24 h; % protein remaining at the concentration at which maximum degradation is seen
The reply should be a number in %, with the unit left off.

Example results:
CCCn1cc(-c2cc(OC)c(CCN3CCN(CC4CCN(C(=O)c5ccc(Cl)c(N6CCC(=O)NC6=O)c5)CC4)CC3)c(OC)c2)c(C)c(C)c1=O [Compound E48]: 15.41
CCCCn1cc(-c2ccc(OC3CCN(CC4CCN(C(=O)c5ccc(OC)c(N6CCC(=O)NC6=O)c5)CC4)CC3)c(OC)c2)c2ccncc2c1=O [Compound B5]: 13.14
CCCn1cc(-c2cc(OC)c(CCN3CCC(OC4CCN(C(=O)c5ccc(Cl)c(N6CCC(=O)NC6=O)c5)CC4)CC3)c(OC)c2)cc(C)c1=O [Compound B1]: 11.90
CCCn1cc(-c2cc(OC)c(CCN3CCC(OC4CCN(CCn5cccc(CN6CCC(=O)NC6=O)c5=O)CC4)CC3)c(OC)c2)c(C)c(C)c1=O [Compound E23]: 14.27
COc1cc(-c2cn(C)c(=O)c3cnccc23)c(OC)cc1CN1CCC(OC2CCN(C(=O)COc3ccc(N4CCC(=O)NC4=O)cc3)CC2)CC1 [Compound E46]: 15.69
CCCCn1cc(-c2ccc(OC3CCN(CC4CCN(C(=O)c5ccc(Cl)c(N6CCC(=O)NC6=O)c5)CC4)CC3)c(OC)c2)c2ccncc2c1=O [Compound B6]: 16.75
COc1cc(-c2cn(C)c(=O)c3cnccc23)cc(OC)c1CN1CCC(OC2CCN(CCn3cccc(CN4CCC(=O)NC4=O)c3=O)CC2)CC1 [Compound C2]: 11.95
CCCCn1cc(-c2ccc(O[C@H]3CCN(CC4CCN(CCn5cccc(CN6CCC(=O)NC6=O)c5=O)CC4)C[C@@H]3F)cc2)c2ccncc2c1=O [Compound E28]: 23.20
COc1cc(-c2cn(C)c(=O)c3cnccc23)cc(OC)c1CN1CCC(OC2CCN(C(=O)c3cccc(N4CCC(=O)NC4=O)c3)CC2)CC1 [Compound A36]: 18.42
CCCCn1cc(-c2ccc(OC3CCN(CC4CCN(C(=O)c5ccc(OC)c(N6CCC(=O)NC6=O)c5)CC4)CC3)c(F)c2)c2ccncc2c1=O [Compound E34]: 13.08

Query :: Short answer please: BRD9 Deg Amax %, BRD9-GFP (Homo sapiens), entry CCCCn1cc(-c2cc(OC)c(CN3CCC(OC4CCN(C(=O)c5ccc(OC)c(N6CCC(=O)NC6=O)c5)CC4)CC3)cc2OC)c2ccncc2c1=O [Compound B3]
Result :: 10.95

Query :: Short answer please: BRD9 Deg Amax %, BRD9-GFP (Homo sapiens), entry CCCCn1cc(-c2cc(F)c(CN3CCC(OC4CCN(C(=O)COc5ccc(C)c(N6CCC(=O)NC6=O)c5)CC4)CC3)c(F)c2)c2ccncc2c1=O [Compound E45]
Result :: 15.28

====

- Tested on: BRD9-GFP (Homo sapiens, UniProt Q9H8M2)
- Construct: CHYSEL (2A cis-acting hydrolase element) remnant after GFP; mCherry is split off as a separate protein (C); expressed in transfected cells; host or cells: HEK293A cells (Invitrogen R70507), lentiviral transduction with pLenti6-BRD9-GFP-CHYSEL-mCherry, blasticidin selection
- Measurement description: BRD9-GFP protein abundance flow cytometry assay in HEK293A cells
- Assay type: cell-based
- Assay context: HEK293A-BRD9-GFP-CHYSEL-mCherry cells, 24 h; % protein remaining at the concentration at which maximum degradation is seen
Each record is given 1.0 if its reported BRD9 Deg Amax % is strictly below 20%. Records at or above 20% are given 0.0.

Here's what some known entries look like.
CCCCn1cc(-c2ccc(O[C@H]3CCN(CC4CCN(CCOc5ccc(C)c(N6CCC(=O)NC6=O)c5)CC4)C[C@@H]3F)c(OC)c2)c2ccncc2c1=O [Compound E22]: 0.0
COc1cc(-c2cn(C)c(=O)c(C)c2C)ccc1CN1CCN(CC2CCN(C(=O)c3cccc(N4CCC(=O)NC4=O)c3)CC2)CC1 [Compound A15]: 0.0
CCCCn1cc(-c2cc(OC)c(CCN3CCC(OC4CCN(C(=O)c5ccc(OC)c(N6CCC(=O)NC6=O)c5)CC4)CC3)c(OC)c2)c2ccncc2c1=O [Compound E50]: 1.0
CCCn1cc(-c2cc(F)c(CCN3CCC(OC4CCN(C(=O)c5ccc(OC)c(N6CCC(=O)NC6=O)c5)CC4)CC3)c(F)c2)c(C)c(C)c1=O [Compound E12]: 0.0
COc1cc(-c2cn(C)c(=O)c3cnccc23)c(OC)cc1OC1CCN(CC2CCN(C(=O)c3ccc(OC)c(N4CCC(=O)NC4=O)c3)CC2)CC1 [Compound A20]: 1.0
CCCCn1cc(-c2ccc(OC3CCN(CC4CCN(C(=O)c5ccc(OC)c(N6CCC(=O)NC6=O)c5)CC4)CC3)c(Cl)c2)c2ccncc2c1=O [Compound E43]: 1.0

Shift focus to the following entry.
Query :: Say whether its BRD9 Deg Amax % is strictly beneath 20%. Entry: COc1ccc(C(=O)N2CCC(OC3CCN(Cc4c(OC)cc(-c5cc(C)c(=O)n(C)c5)cc4OC)CC3)CC2)cc1N1CCC(=O)NC1=O [Compound A1]
Result :: 1.0
